- System: SF-295 CNS
- Protocol Description: NCI-60 one-dose screen, 48 h (100 = growth as untreated, 0 = no growth, -100 = all killed)
- Measurement Context: 10 µM unless noted
About 83,000 compounds went through this panel and 20% of them were active in at least one assay; those are over-represented in the sample as a whole.
Quantity Kind: growth (%)
# unit: % | format: bare number

Observe how each entry below is paired with its result.
>>> reported_result("Oc1ccc(CCC2CCCC(CCc3ccc(OCCF)cc3)N2)cc1 (stereo not given)")
96.4
>>> reported_result("CCCCCCCC(=O)SCC/C=C/[C@@H]1CC(=O)NCc2cccc(n2)CN(Cc2ccc3ccccc3c2)CC(=O)N[C@@H](C(C)C)C(=O)O1")
9.4
>>> reported_result("O=C1OC(c2ccc(Cl)c(Cl)c2)=C/C1=C/c1cccc([N+](=O)[O-])c1")
101
>>> reported_result("N#Cc1cnc2cc(OC[C@@H](O)CO)c(NC(=O)C3CCCC3)cc2c1Nc1ccc(OCc2cccc(F)c2)c(Cl)c1")
1.06

For Oc1cccc2oc(=S)[nH]c12 the compound record lists growth as 118
